I'd appreciate it if you could supply Solubility/THF [% by weight] values for the items below.
assay: Solubility of organic acceptor compound in tetrahydrofuran (solvent of coating solution); format: physicochemical; conditions: THF; organic acceptor; Table 1
Quick reminder: number only, in % by weight, skip the unit.

Query: Consider the compound shown here: O=C1c2ccc3c4c(ccc(c24)C(=O)N1C1CCCCC1)C(=O)N(C1CCCCC1)C3=O What is its recorded Solubility/THF [% by weight]?
Response: 1

Query: Consider the compound shown here: CC(C)(C)C1=CC(=C2C=C(C(C)(C)C)C(=O)C(C(C)(C)C)=C2)C=C(C(C)(C)C)C1=O What is its recorded Solubility/THF [% by weight]?
Response: 3

Query: Consider the compound shown here: O=C1NC(=O)c2ccccc21 What is its recorded Solubility/THF [% by weight]?
Response: 3

Query: Consider the compound shown here: O=C1C(Oc2ccccc2)=C(Oc2ccccc2)C(=O)c2ccccc21 What is its recorded Solubility/THF [% by weight]?
Response: 3

###

I'd appreciate it if you could supply Redox potential values for the items below.
test: Reduction potential of organic acceptor compound by cyclic voltammetry; type: physicochemical; conditions: organic acceptor; Table 4

Query: Consider the compound shown here: Cc1ccc(C(=O)c2ccc(C)cc2)cc1 [AC-8, reference compound] What is its recorded Redox potential?
Response: −1.31

Query: Consider the compound shown here: O=C(c1ccccc1)c1ccccc1 [AC-6, reference compound] What is its recorded Redox potential?
Response: −1.32

Query: Consider the compound shown here: O=C1OC(=O)c2ccccc21 [AC-5, reference compound] What is its recorded Redox potential?
Response: −1.53

Query: Consider the compound shown here: O=C1C(Oc2ccccc2)=C(Oc2ccccc2)C(=O)c2ccccc21 What is its recorded Redox potential?
Response: −0.95

###

experiment: Reduction potential of organic acceptor compound by cyclic voltammetry; assay type: physicochemical; details: Table 3; organic acceptor added when producing the phthalocyanine crystal; reference electrode (Ag+/Ag)
quantity_name: Reduction potential [V] of organic acceptor (V)
Quick reminder: number only, in V, skip the unit.

Query: Consider the molecule shown here: O=C1NC(=O)c2ccccc21 [AC-4] What is its recorded Reduction potential [V] of organic acceptor?
Response: −1.28

Query: Consider the molecule shown here: O=C1C(Oc2ccccc2)=C(Oc2ccccc2)C(=O)c2ccccc21 [AC-1] What is its recorded Reduction potential [V] of organic acceptor?
Response: −0.95

Query: Consider the molecule shown here: O=C1c2ccc3c4c(ccc(c24)C(=O)N1C1CCCCC1)C(=O)N(C1CCCCC1)C3=O [AC-3] What is its recorded Reduction potential [V] of organic acceptor?
Response: −0.85

Query: Consider the molecule shown here: CC(C)(C)C1=CC(=C2C=C(C(C)(C)C)C(=O)C(C(C)(C)C)=C2)C=C(C(C)(C)C)C1=O [AC-2] What is its recorded Reduction potential [V] of organic acceptor?
Response: −0.85

###

I'd appreciate it if you could supply Solubility values for the items below.
test: Solubility of organic acceptor compound in tetrahydrofuran (solvent of coating solution); type: physicochemical; details: THF
Quick reminder: number only, in % by weight, skip the unit.

Query: Consider the compound shown here: Cc1ccc(C(=O)c2ccc(C)cc2)cc1 [AC-8, reference compound] What is its recorded Solubility?
Response: 11

Query: Consider the compound shown here: O=C1OC(=O)c2ccccc21 [AC-5, reference compound] What is its recorded Solubility?
Response: 5

Query: Consider the compound shown here: O=C1c2ccc3c4c(ccc(c24)C(=O)N1C1CCCCC1)C(=O)N(C1CCCCC1)C3=O What is its recorded Solubility?
Response: 1

Query: Consider the compound shown here: CC(C)(C)C1=CC(=C2C=C(C(C)(C)C)C(=O)C(C(C)(C)C)=C2)C=C(C(C)(C)C)C1=O What is its recorded Solubility?
Response: 3

Query: Consider the compound shown here: O=C1C(Oc2ccccc2)=C(Oc2ccccc2)C(=O)c2ccccc21 What is its recorded Solubility?
Response: 3

Query: Consider the compound shown here: O=C1NC(=O)c2ccccc21 What is its recorded Solubility?
Response: 3
